- assay.procedure: yeast display, Sf9 membrane polyspecificity reagent, FACS + sequencing; frameworks hold sequencing errors
measurement.name: polyreactivity (PSR sort gate)

Below, 6 sequences whose answers are already recorded.
{"sequence.code": "QVWLQESGGGLVQACGSLRLSCAASGTISRDIFMGWYRQAPGKEREFVATIAQGGITNYADSVKGRFTISRDNAKNTLYLQMNSVKPGDTAVYYCAARDGNCYWFYYWGQGTQVTVSS", "polyreactivity (PSR sort gate)": "high polyreactivity"}
{"sequence.code": "QVQLQESCGGLVQAGGSLRLSCAASGSIFDGFNMGWYRQAPGKEREFVAAISYGASTYYADSVKGRFTVSRDNAKNSVYLQMNSLKPEDTAVYYCAVYDELYHVLVYWGRGTQVTVSS", "polyreactivity (PSR sort gate)": "low polyreactivity"}
{"sequence.code": "QVQLVESGGGLVQAGGSLRLSCAASGGIFSYNVMGWYRQAPGKERELVAAITRGGSTYYADSVKGRFTISRDNAKNTVYLQMNSLKPEDTAVYYCAAVRNYLWTGYDYWGQGTQVTVSS", "polyreactivity (PSR sort gate)": "high polyreactivity"}
{"sequence.code": "QVQLVESGVGLVQAGGSLRLSWTASGRIFSWYAMGWYRQAPGKERELVADISWGTGSTYYADTVKGRFTISRDNAKHTVDLQMNSLKPEDTAVYYCAADPGYYYEYRRFYYWGQGTQVTVSS", "polyreactivity (PSR sort gate)": "high polyreactivity"}
{"sequence.code": "QVQLVESGGGLVQAGGSLRISCAASGRTFYSYAMGWYRQAPGKERELVAAITWRASTYYADSVKGRFTISRDNAKNTVYLQMNSLKPEDTAVYYCAVRDYRPRYYTFLYNSPYDYWGQGTQVTVSS", "polyreactivity (PSR sort gate)": "high polyreactivity"}
{"sequence.code": "QVQLVESGGGLVQAGGSLRLSCAASGFTFKTYAMGWYRQAPGKEREFVAAISSRGGSTYYADSVKGRFTISRDNAKNTVYLQMNSLKPEDTAVYYCATATRPRDRYSRYGYWGQGTQVTVSS", "polyreactivity (PSR sort gate)": "high polyreactivity"}

[ask] Look up polyreactivity (PSR sort gate) for this sequence: QVQLGESGGGLVQAGGSLRLSCAASGRIIPYYAMGWYRQAPGKERELVAAISLSGGSTYYADSVKGRFTISRDIAKNTVYLQMNSLKPEDTAVYYCNAVASTYGYYWYPGLGYDYWGQGTQVTVSS
[reply] low polyreactivity
